I'd appreciate it if you could supply Plant response rating, Foxtail, Giant values for the items below.
- System: foxtail, giant (Setaria faberii)
- PROTOCOL DESCRIPTION: Test A postemergence, giant foxtail
- Assay type: in vivo
- CONDITION PARAMETERS: 500 g ai/ha, visual injury, 0 to 100 scale (0 no effect, 100 complete control), approximately 10 days
Give bare numbers.

Worked examples follow.
I am curious: what Plant response rating, Foxtail, Giant value has been reported for O=C1NCC(c2cccc(OCC3CC3)c2)C1C(=O)Nc1ccccc1Cl (centres unmarked) ? 80

Request: O=C1NCC(c2cccc(COc3ccccc3)c2)C1C(=O)Nc1cccc(F)c1F (centres unmarked) 30

Request: O=C1NCC(c2cccc(Oc3ccccn3)c2)C1C(=O)Nc1ccccc1F (centres unmarked) 80

Request: O=C1NCC(c2cccc(OCc3ccco3)c2)C1C(=O)Nc1ccccc1Cl (centres unmarked) 0

Others:
I am curious: what Plant response rating, Foxtail, Giant value has been reported for O=C1NCC(c2cccc(COc3ccccc3)c2)C1C(=O)Nc1ccccc1F (centres unmarked) ? 40

* * *

- System: ryegrass, Italian (Lolium multiflorum)
- PROTOCOL DESCRIPTION: Test A postemergence, Italian ryegrass
- Format: in vivo
- CONDITION PARAMETERS: 500 g ai/ha, visual injury, 0 to 100 scale (0 no effect, 100 complete control), approximately 10 days
I'd appreciate it if you could supply Plant response rating, Ryegrass, Italian values for the items below.
Numbers only.

Worked examples follow.
Query the reported Plant response rating, Ryegrass, Italian for ryegrass, Italian (Lolium multiflorum); item: O=C1NCC(c2cccc(Oc3ncc(Cl)cn3)c2)C1C(=O)Nc1cccc(F)c1F (stereo not shown) 0

Request: O=C1NCC(c2cccc(Cn3cccn3)c2)C1C(=O)Nc1ccccc1F (stereo not shown) 0

Request: O=C1NCC(c2cccc(OC(F)(F)C(F)OC(F)(F)F)c2)C1C(=O)Nc1ccccc1F (stereo not shown) 0

Request: CC1(COc2cccc(C3CNC(=O)C3C(=O)Nc3ccccc3Cl)c2)COC1 (stereo not shown) 0

Okay, here is my list. What is Plant response rating, Ryegrass, Italian for each of these?
1. O=C1NCC(c2cccc(Oc3ccccn3)c2)C1C(=O)Nc1ccccc1F (stereo not shown)
2. O=C1NCC(c2cccc(Oc3ccc(F)cn3)c2)C1C(=O)Nc1cccc(F)c1F (single isomer, unassigned)

30
60

Okay, here is my list. What is Plant response rating, Ryegrass, Italian for each of these?
1. O=C1NCC(c2cccc(Oc3ccccn3)c2)C1C(=O)Nc1cccc(F)c1F (stereo not shown)
2. O=C1NCC(c2cccc(Oc3ncc(F)cn3)c2)C1C(=O)Nc1ccccc1F (single isomer, unassigned)
3. O=C1NCC(c2cccc(OCc3ccccc3)c2)C1C(=O)Nc1cccc(F)c1F (stereo not shown)
4. CN1CC(c2cccc(Sc3ccccc3)c2)C(C(=O)Nc2ccccc2F)C1=O (single isomer, unassigned)
5. O=C1NCC(c2cccc(Cn3cncn3)c2)C1C(=O)Nc1cccc(F)c1F (stereo not shown)
6. CN1CC(c2cccc(Oc3ccc(F)cc3)c2)C(C(=O)Nc2ccccc2F)C1=O (single isomer, unassigned)
7. O=C1NCC(c2cccc(Cn3ccc(C(F)(F)F)n3)c2)C1C(=O)Nc1ccc(F)c(F)c1F (stereo not shown)

1. 0
2. 20
3. 0
4. 0
5. 0
6. 30
7. 0

Okay, here is my list. What is Plant response rating, Ryegrass, Italian for each of these?
1. O=C1NCC(c2cccc(Oc3ccccn3)c2)C1C(=O)Nc1ccccc1Cl (stereo not shown)
2. CN1CC(c2cccc(Oc3ccc(C(F)(F)F)cn3)c2)C(C(=O)Nc2ccccc2F)C1=O (single isomer, unassigned)
3. O=C1NCC(c2cccc(Cn3ccc(C(F)(F)F)n3)c2)C1C(=O)Nc1cccc(F)c1F (stereo not shown)
4. O=C1NCC(c2cccc(COc3ccccc3)c2)C1C(=O)Nc1ccccc1Cl (stereo not shown)

1. 0
2. 30
3. 0
4. 0

Okay, here is my list. What is Plant response rating, Ryegrass, Italian for each of these?
1. CN1CC(c2cccc(OC(F)(F)C(F)OC(F)(F)F)c2)C(C(=O)Nc2ccccc2F)C1=O (stereo not shown)
2. CC1(COc2cccc(C3CNC(=O)C3C(=O)Nc3ccccc3F)c2)COC1 (stereo not shown)
3. O=C1NCC(c2cccc(OCC3CC3)c2)C1C(=O)Nc1cccc(F)c1F (stereo not shown)
4. CON=Cc1cccc(C2CN(C)C(=O)C2C(=O)Nc2ccccc2F)c1 (stereo not shown)

1: 20; 2: 0; 3: 50; 4: 0

* * *

- Tested on: kochia (Kochia scoparia)
- PROTOCOL DESCRIPTION: Test A preemergence, kochia
- Format: in vivo
- CONDITION PARAMETERS: 125 g ai/ha, 0 to 100 scale (0 no effect, 100 complete control)
ASSAY ENDPOINT: Plant response rating, Kochia
Give bare numbers.

I am curious: what Plant response rating, Kochia value has been reported for CC1(COc2cccc(C3CNC(=O)C3C(=O)Nc3ccccc3Cl)c2)COC1 (stereo not shown) ? 0

Request: O=C1NCC(c2cccc(Oc3ccccn3)c2)C1C(=O)Nc1ccccc1F (stereo not shown) 0

Request: CN1CC(c2cccc(Oc3ncc(F)cn3)c2)C(C(=O)Nc2ccccc2F)C1=O (single isomer, unassigned) 0

Okay, next one:
I am curious: what Plant response rating, Kochia value has been reported for O=C1NCC(c2cccc(Oc3ncc(F)cn3)c2)C1C(=O)Nc1ccccc1F (single isomer, unassigned) ? 30

* * *

- Test system: ryegrass, Italian (Lolium multiflorum)
- PROTOCOL DESCRIPTION: Test A postemergence, Italian ryegrass
- Type: in vivo
- CONDITION PARAMETERS: 500 g ai/ha, visual injury, 0 to 100 scale (0 no effect, 100 complete control), approximately 10 days
ASSAY ENDPOINT: Plant response rating, Ryegrass, Italian
One number for each entry.

Worked examples follow.
Query the reported Plant response rating, Ryegrass, Italian for ryegrass, Italian (Lolium multiflorum); item: O=C1NCC(c2cccc(Cn3cccn3)c2)C1C(=O)Nc1ccc(F)cc1F (centres unmarked) [Compound 28] 0

Request: O=C1NCC(c2cccc(COc3ccccc3)c2)C1C(=O)Nc1ccc(F)c(F)c1F (centres unmarked) [Compound 17] 0

Request: O=C1NCC(c2cccc(Oc3ccc(C(F)(F)F)cn3)c2)C1C(=O)Nc1ccccc1F (single isomer, unassigned) [Compound 62] 30

Request: O=C1NCC(c2cccc(Cn3cncn3)c2)C1C(=O)Nc1ccccc1F (centres unmarked) [Compound 31] 0

Okay, next one:
Query the reported Plant response rating, Ryegrass, Italian for ryegrass, Italian (Lolium multiflorum); item: O=C1NCC(c2cccc(OCc3ccccc3)c2)C1C(=O)Nc1ccc(F)c(F)c1F (centres unmarked) [Compound 66] 0

* * *

- Test system: barnyardgrass (Echinochloa crus-galli)
- PROTOCOL DESCRIPTION: Test A preemergence, barnyardgrass
- Format: in vivo
- CONDITION PARAMETERS: 125 g ai/ha, 0 to 100 scale (0 no effect, 100 complete control)
ASSAY ENDPOINT: Plant response rating, Barnyardgrass
One number for each entry.

I am curious: what Plant response rating, Barnyardgrass value has been reported for O=C1NCC(c2ccccc2Cn2ccc(C(F)(F)F)n2)C1C(=O)Nc1cccc(F)c1F (stereo not shown) ? 40

Request: O=C1NCC(c2cccc(COc3ccccc3)c2)C1C(=O)Nc1ccc(F)c(F)c1F (stereo not shown) 20

Request: O=C1NCC(c2cccc(COc3ccccc3)c2)C1C(=O)Nc1ccc(F)cc1F (stereo not shown) 20

Request: O=C1NCC(c2cccc(OCC3OCCO3)c2)C1C(=O)Nc1ccccc1Cl (stereo not shown) 20

Request: O=C1NCC(c2cccc(OCC3CC3)c2)C1C(=O)Nc1cccc(F)c1F (stereo not shown) 90

Request: CN1C[C@H](c2cccc(Oc3ccc(F)cn3)c2)[C@@H](C(=O)Nc2ccc(F)c(F)c2F)C1=O 90

Okay, here is my list. What is Plant response rating, Barnyardgrass for each of these?
1. O=C1NCC(c2cccc(Cn3cccn3)c2)C1C(=O)Nc1ccccc1F (stereo not shown)
2. O=C1NCC(c2cccc(Cn3cccn3)c2)C1C(=O)Nc1ccc(F)c(F)c1F (stereo not shown)
3. O=C1NCC(c2cccc(Cn3cccn3)c2)C1C(=O)Nc1cccc(F)c1F (stereo not shown)
4. O=C1NCC(c2ccccc2Cn2ccc(C(F)(F)F)n2)C1C(=O)Nc1ccccc1F (stereo not shown)
5. O=C1NCC(c2cccc(COc3ccccc3)c2)C1C(=O)Nc1ccccc1Cl (stereo not shown)
6. O=C1NCC(c2cccc(OCc3ccccc3)c2)C1C(=O)Nc1ccc(F)c(F)c1F (stereo not shown)
7. O=C1NCC(c2cccc(Oc3ccc(F)cn3)c2)C1C(=O)Nc1cccc(F)c1F (single isomer, unassigned)

1. 0
2. 40
3. 0
4. 0
5. 0
6. 0
7. 70

Okay, here is my list. What is Plant response rating, Barnyardgrass for each of these?
1. CN1CC(c2cccc(Sc3ccccc3)c2)C(C(=O)Nc2ccccc2F)C1=O (single isomer, unassigned)
2. O=C1NCC(c2cccc(CN3CCOCC3)c2)C1C(=O)Nc1cccc(F)c1F (single isomer, unassigned)
3. O=C1NCC(c2cccc(Oc3ncc(Cl)cn3)c2)C1C(=O)Nc1cccc(F)c1F (stereo not shown)

1. 0
2. 0
3. 30
